Experiment: AUC in Sprague-Dawley rat at 10 mg/kg, po
Assay type: ADME, organism-based
Conditions: in vivo
Experimental Readout: AUC

                                   molecule  value_measured
0  CCc1cc2c(s1)CCN1Cc3c(OC)ccc(OC)c3CC21 (stereo unspecified)     889 ng·h/mL

----------
Assay: AUCt in C57BL/6J mouse at 10 mg/kg, po
Type: ADME, organism-based
Details: in vivo
Experimental Readout: AUC(0-t)

>>> print(df.to_string())
                                   compound  value_measured
0  CCc1cc2c(s1)CCN1Cc3c(OC)ccc(OC)c3CC21 (stereo unspecified)     188 ng·h/mL

----------
Assay: Tmax in C57BL/6J mouse at 10 mg/kg, po
Format: ADME, organism-based
Details: in vivo
Experimental Readout: Tmax

In [3]: df
Out[3]:
                                   compound  value_measured
0  CCc1cc2c(s1)CCN1Cc3c(OC)ccc(OC)c3CC21 (stereo unspecified)          15 min

----------
Test: Half life in Sprague-Dawley rat at 10 mg/kg, po
Assay type: ADME, organism-based
Details: in vivo
Experimental Readout: half-life (h)

>>> df
                                   compound  value_measured
0  CCc1cc2c(s1)CCN1Cc3c(OC)ccc(OC)c3CC21 (stereo unspecified)             7.2

----------
Test: Tmax in Sprague-Dawley rat at 10 mg/kg, po
Type: ADME, organism-based
Conditions: in vivo
Experimental Readout: Tmax (min)

>>> print(df.to_string())
                                   compound  value_measured
0  CCc1cc2c(s1)CCN1Cc3c(OC)ccc(OC)c3CC21 (stereo unspecified)              30

----------
Assay: Cmax in Sprague-Dawley rat at 10 mg/kg, po
Type: ADME, organism-based
Parameters: dose 10 mg/kg, route oral
Details: in vivo
Experimental Readout: Cmax (ng/mL)

In [3]: df
Out[3]:
                                   compound  experimental_readout  units_of_measure  value_measured
0  CCc1cc2c(s1)CCN1Cc3c(OC)ccc(OC)c3CC21 (stereo unspecified)                  Cmax             ng/mL             162

Hey, just so you know, these numbers are from ChEMBL document CHEMBL4130473.
